# assay target: FAP-expressing human WI-38 fibroblasts (Homo sapiens)
# Construct: FAP-expressing human WI-38 fibroblasts (ECACC) were cultured in EMEM; host or cells: WI-38 human fibroblasts
# Sequence (Q12884 1-760): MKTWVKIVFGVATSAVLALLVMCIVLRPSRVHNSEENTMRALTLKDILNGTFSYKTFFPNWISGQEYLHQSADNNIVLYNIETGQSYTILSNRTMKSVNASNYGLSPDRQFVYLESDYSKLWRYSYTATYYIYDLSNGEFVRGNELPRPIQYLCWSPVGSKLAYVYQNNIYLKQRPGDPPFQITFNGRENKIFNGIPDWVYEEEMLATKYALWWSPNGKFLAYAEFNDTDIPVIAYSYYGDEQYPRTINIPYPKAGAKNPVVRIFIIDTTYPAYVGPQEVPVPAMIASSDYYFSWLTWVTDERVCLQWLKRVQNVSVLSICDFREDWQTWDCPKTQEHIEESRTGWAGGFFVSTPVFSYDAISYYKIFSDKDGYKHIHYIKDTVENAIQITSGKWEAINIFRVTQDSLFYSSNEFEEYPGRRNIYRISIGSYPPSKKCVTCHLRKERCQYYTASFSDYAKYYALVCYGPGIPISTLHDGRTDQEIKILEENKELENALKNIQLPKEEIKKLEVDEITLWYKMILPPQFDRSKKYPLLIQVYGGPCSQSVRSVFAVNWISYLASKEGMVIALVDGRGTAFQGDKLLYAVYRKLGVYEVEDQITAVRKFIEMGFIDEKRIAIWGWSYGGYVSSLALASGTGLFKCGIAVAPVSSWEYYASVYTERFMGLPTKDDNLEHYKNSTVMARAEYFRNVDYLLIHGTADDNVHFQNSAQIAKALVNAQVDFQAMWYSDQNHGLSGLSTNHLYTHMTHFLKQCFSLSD
# assay remarks: Competitive FACS binding assay
# run parameters: pIC50 Category (FACS), competition with 3 nM Cy5-labeled compound, 4° C., 1 hour
pIC50: −log10 of the molar value. Numbered stars: 1 amine (or outer) side, 2 acyl side, 3 side chain; on linkers, the order of the positions; unused ones are H or OH. Bridge positions count the residues as written; N and C are the ends. Square brackets hold non-standard residues; d marks the D form. Peptide text beside a SMILES is read from it. * marks the point of attachment. X9 = NCCNCC(CNCCN)C(=O)N[C@@H](CCC(=O)O)C(=O)NCCCOCCOCCOCCCN*; X10 = O=C([C@H](CCCc1cccc(C[*:3])c1)N[*:1])[*:2]; Suc = O=C(CCC(=O)[*:2])[*:1]; Nle = CCCC[C@H](N)C(=O)O

compound	pIC50
CCCCCC(=O)N[C@H]1CSCc2cc(CSCCNC(=O)CCCCC3(N(C)CC(=O)O)CN(CC(=O)O)CCN(CC(=O)O)C3)cc(c2)CSC[C@@H](C(=O)O)NC(=O)[C@H](Cc2ccccc2)NC(=O)[C@H](CCC(N)=O)NC(=O)[C@H]([C@@H](C)O)NC(=O)[C@@H]2CCCN2C(=O)[C@@H]2CCCN2C1=O [3BP-4382]	7.10 to 8.00
CCCCCC(=O)N[C@H]1CSCc2cc(cc(CN3CCN(C(=O)CN4CCN5CCN6CCN(CC4)CC(=O)[O][Eu]([O]C(=O)C6)[O]C(=O)C5)CC3)c2)CSC[C@@H](C(=O)N[C@@H](CC(=O)O)C(N)=O)NC(=O)[C@H](Cc2ccccc2)NC(=O)[C@H](CCC(N)=O)NC(=O)[C@H]([C@@H](C)O)NC(=O)[C@@H]2CCCN2C(=O)[C@@H]2CCCN2C1 [3BP-3661]	> 8.00
CCCC[C@H](NC(=O)CCC(=O)NCCCOCCOCCOCCCNC(=O)[C@H](CCC(=O)O)NC(=O)C(CNCCN)CNCCN)C(=O)N[C@H]1CSCc2cccc(c2)CCC[C@@H](C(=O)O)NC(=O)[C@H](Cc2ccccc2)NC(=O)[C@H](CCC(=O)O)NC(=O)[C@H]([C@@H](C)O)NC(=O)[C@@H]2CCCN2C(=O)[C@@H]2CCCN2C1=O [3BP-4222] ({X9-Suc}-[Nle]CPPTEF[X10]-OH; thioether 2-8)	7.10 to 8.00
